- Assayed system: Hpk1 (Homo sapiens, UniProt Q92918)
- Sequence (Q92918 whole entry): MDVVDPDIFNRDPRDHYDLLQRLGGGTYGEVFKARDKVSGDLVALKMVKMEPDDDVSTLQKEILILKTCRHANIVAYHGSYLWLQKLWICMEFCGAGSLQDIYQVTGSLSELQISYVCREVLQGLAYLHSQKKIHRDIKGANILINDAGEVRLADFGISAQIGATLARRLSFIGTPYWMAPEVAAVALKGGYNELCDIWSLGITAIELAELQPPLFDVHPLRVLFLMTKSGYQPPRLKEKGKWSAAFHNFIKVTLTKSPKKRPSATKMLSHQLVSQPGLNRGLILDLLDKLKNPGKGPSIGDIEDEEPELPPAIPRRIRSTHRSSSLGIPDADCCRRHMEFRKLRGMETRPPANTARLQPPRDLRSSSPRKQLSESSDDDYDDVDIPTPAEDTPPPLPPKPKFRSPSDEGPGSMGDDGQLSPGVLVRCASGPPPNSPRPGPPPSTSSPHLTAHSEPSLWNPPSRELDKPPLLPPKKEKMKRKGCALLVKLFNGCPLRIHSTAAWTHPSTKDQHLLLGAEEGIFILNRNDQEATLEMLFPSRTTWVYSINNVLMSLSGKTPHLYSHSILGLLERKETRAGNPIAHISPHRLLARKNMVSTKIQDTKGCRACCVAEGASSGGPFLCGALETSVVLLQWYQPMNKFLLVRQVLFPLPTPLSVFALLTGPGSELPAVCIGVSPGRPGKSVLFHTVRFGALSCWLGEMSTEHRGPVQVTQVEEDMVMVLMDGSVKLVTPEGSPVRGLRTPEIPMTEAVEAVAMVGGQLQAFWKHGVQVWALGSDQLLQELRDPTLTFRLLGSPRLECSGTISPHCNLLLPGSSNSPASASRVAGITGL
- Method description: SLP76 phosphorylation assay (SLP76 pS376 in lysates of HEK293 cells engineered to express Hpk1 and SLP76)
- Assay type: cell-based
- Test context: HEK293 cells expressing Hpk1 and SLP76, 4 hours incubation; read-out: pSLP76 (HEK293) (pIC50) (converted)
Parameter measured: IC50 (nM)

{"columns": ["Molecule", "Parameter measured", "Unit", "Recorded value"],
 "data": [
  ["CN(C)Cc1cc(-c2cnc(N)c(-c3ccnc(NCCO)c3)c2)ccc1C1CCOCC1 [Co. 74]", "IC50", "nM", 1860]
]}

1: Nc1ncc(-c2ccc(C3CCOCC3)c([C@@H]3COCCN3)c2)cc1Br [Co. 78]
2: Nc1ncc(-c2ccc(C3CCOCC3)c([C@@H]3CCCN3)c2)cc1-c1ccnc(Cl)c1 [Co. 17]
3: Cc1cc(-c2cc(-c3ccc(C4CCOCC4)c([C@@H]4CCCN4)c3)cnc2N)on1 [Co. 39]
Asked: List the 3 entries from lowest IC50 to highest IC50 value. Sort and list the labels as requested.
Given back: 3, 1, 2

###

- Assayed system: Hpk1 (Homo sapiens, UniProt Q92918)
- Method description: SLP76 phosphorylation assay (SLP76 pS376 in lysates of HEK293 cells engineered to express Hpk1 and SLP76)
- Type: cell-based
- Test context: HEK293 cells expressing Hpk1 and SLP76, 4 hours incubation; read-out: pSLP76 (HEK293) (pIC50) (converted)
Parameter measured: IC50

Below are worked cases with known answers.
{"columns": ["Compound", "IC50"],
 "data": [
  ["Nc1ncc(-c2ccc(C3=CCOC3)c([C@@H]3CCCN3)c2)cc1-c1ccnc(F)c1 [Co. 45]", "1.12 µM"],
  ["Nc1ncc(-c2ccc(C3COC3)c([C@@H]3CCCN3)c2)cc1-c1ccnc(F)c1 [Co. 54]", "> 10 µM"]
]}

Asked: Given Nc1ncc(-c2ccc(C3CCOCC3)c([C@H]3COCCN3)c2)cc1-c1ccncc1 [Co. 80b] , respond with its IC50.
Given back: > 10 µM

Asked: Given Nc1ncc(-c2ccc(C3CCOCC3)c([C@H]3C[S@+]([O-])CCN3)c2)cc1-c1ccnc(F)c1 (single isomer, unassigned) [Co. 15d] , respond with its IC50.
Given back: > 10 µM

// data source = patent US12492194B2
